test: yeast display, Sf9 membrane polyspecificity reagent, FACS + sequencing; frameworks hold sequencing errors
readout: polyreactivity (PSR sort gate)

Solved entries:
QVQLVESGGGLVQAGGSLRLSCAASGRTFRYNAMGWYRQAPGKERELVAAITQSGGSTYYADSVKGRFTISRDNAKNTVYLQMNSLKPEDTAVYYCAKVRERINYDYWGQGTQVTVSS	low polyreactivity
QVQLVESGGGLVQAGGSLRLSCAASGRIFSYYAMGWYRQAPGKERELVATINSGGSTNYADSVKGRFTISRDNAKNTVYLQMNSLKPVATAVYYCAASPVWWYDYWGQGTQVTVSS	low polyreactivity
QVQLVESGGGLVQAGGSLRLSCAASGSIFKSNAMGWYRQAPGKERELVAAISNGGITNYADSVKGRFTISRDNAKNTVFLQMNSLKPEDTAVYYCATSDVREIWVDYWGQGTQVTVSS	low polyreactivity
QVQLVESGGGLVQAGGSIRLSCAASGNTFVLYTMGWYRQAPGKERELVAAISGRGTNTYYADSVKGRFTISRDNAKNTVYLQMNSLKPEDTAVYYCAARYKTLVTDYEYWGQGTQVTVSS	high polyreactivity
QVQLVESGGGLVQAGGSLRLSCAASGSIYDYNAMGWYRQAPGKERELVAAISASGGSTYYADSVKGRFTISRDNAKNTVYLQMNSLKPEDTAVYYCAAGYWSYWSLRMDYWGQGTQVTVSS	high polyreactivity

Task: Look up polyreactivity (PSR sort gate) for this sequence: `QVQLVESGGGLVQAGGSLRLSCAASGLIFRTYTMGWYRQAPGKERELVAAISASGGRTYYADSVKGRFTISRDTAKNTVYLQMNRLKPEDTAVNYFNARVNYKGYDSWGQGTQVTVSS`
Output: high polyreactivity

Task: Next sequence: `QVQLVESGGGLVQAGGSLRLSCAASGNTFGIYAMGWYRPAPGKERELVAAISSGTSTNYADSVKGRFTISRDNAKNTVYLQMNSLKPEDTAVYYCNADDQYQDVREDYWGQGTQVTVSS`
Output: low polyreactivity

Task: Try `QVKLVESGGGLVQAGGSLRLSCAASGFIFSKNAMGWYRQAPGKERELVAAISGRGGTTYYADSVKGRFTISRDNAKNTVYLQMNSLIPEDTAVYYCATDNSSHPYDYWGQGTQVTVSS` next.
Output: high polyreactivity

Task: Next sequence: `QVQLVESGRGLVQAGGSLRLSCAASGYTFSHYAMGWYRQAPGKEMELVAGNTWSGGSTYYADSVKGRFTISRDNAKNTVYLQMNSLKPEDTSVYYCAAKYYWYYSYSGIPLFDYWGQGTQVTVSS`
Output: low polyreactivity

Task: Proceed to `QVQLVESGGGLVQAGGSLRLSCAASGSIFEYYTMGWYRQAPGKERELVAGISWSGGSTYYADSVKGRFTISRDNAKNTVYLQMNSLKPEDTAVYYCAAGRTGWYWDSGSTYRYGYGYWGQGTQVTVSS`
Output: high polyreactivity

Task: Subsequent entry: `QVQLVESGGGLVQAGGSLRLSCAASGSTFYFYAMGWYRQAPGKERELVASITVRGGRTYCADSVKGRFTISRDNAKNTVYLQMNSLKPEDTAVYYCAENWSYRAYDYWGQGTQVTVSS`
Output: low polyreactivity

Task: Then what about the sequence `EVHLVESGGCLVQPRGSLRLSCAASGYNYIRYRMGSYRQAPGKVREFVAAISGGSSTNYADSVKGRFTISRDNSKNTVYLQMNSLRAEDTAVYYCAAYKIDSDPRVYWGQGTQVTVSS` ?
Output: low polyreactivity

Task: Please answer likewise for `QVQLVESGGGLVQAGGSLRLSCAASGSTFVYYTMGWYRQAPGKERELVATISSRGGSTYYADSVKGRFTISRDNAKNTVYLQMNSLKPEDTAVYYCAKRGPFYGNYDYWGQGTQVTVSS`
Output: high polyreactivity
